FYI, the data here is from patent US10787446B2.

target: hNav1.7 and the β1 subunit (Homo sapiens)
Construct: expressed in transfected cells
Sequence (Q15858 whole entry): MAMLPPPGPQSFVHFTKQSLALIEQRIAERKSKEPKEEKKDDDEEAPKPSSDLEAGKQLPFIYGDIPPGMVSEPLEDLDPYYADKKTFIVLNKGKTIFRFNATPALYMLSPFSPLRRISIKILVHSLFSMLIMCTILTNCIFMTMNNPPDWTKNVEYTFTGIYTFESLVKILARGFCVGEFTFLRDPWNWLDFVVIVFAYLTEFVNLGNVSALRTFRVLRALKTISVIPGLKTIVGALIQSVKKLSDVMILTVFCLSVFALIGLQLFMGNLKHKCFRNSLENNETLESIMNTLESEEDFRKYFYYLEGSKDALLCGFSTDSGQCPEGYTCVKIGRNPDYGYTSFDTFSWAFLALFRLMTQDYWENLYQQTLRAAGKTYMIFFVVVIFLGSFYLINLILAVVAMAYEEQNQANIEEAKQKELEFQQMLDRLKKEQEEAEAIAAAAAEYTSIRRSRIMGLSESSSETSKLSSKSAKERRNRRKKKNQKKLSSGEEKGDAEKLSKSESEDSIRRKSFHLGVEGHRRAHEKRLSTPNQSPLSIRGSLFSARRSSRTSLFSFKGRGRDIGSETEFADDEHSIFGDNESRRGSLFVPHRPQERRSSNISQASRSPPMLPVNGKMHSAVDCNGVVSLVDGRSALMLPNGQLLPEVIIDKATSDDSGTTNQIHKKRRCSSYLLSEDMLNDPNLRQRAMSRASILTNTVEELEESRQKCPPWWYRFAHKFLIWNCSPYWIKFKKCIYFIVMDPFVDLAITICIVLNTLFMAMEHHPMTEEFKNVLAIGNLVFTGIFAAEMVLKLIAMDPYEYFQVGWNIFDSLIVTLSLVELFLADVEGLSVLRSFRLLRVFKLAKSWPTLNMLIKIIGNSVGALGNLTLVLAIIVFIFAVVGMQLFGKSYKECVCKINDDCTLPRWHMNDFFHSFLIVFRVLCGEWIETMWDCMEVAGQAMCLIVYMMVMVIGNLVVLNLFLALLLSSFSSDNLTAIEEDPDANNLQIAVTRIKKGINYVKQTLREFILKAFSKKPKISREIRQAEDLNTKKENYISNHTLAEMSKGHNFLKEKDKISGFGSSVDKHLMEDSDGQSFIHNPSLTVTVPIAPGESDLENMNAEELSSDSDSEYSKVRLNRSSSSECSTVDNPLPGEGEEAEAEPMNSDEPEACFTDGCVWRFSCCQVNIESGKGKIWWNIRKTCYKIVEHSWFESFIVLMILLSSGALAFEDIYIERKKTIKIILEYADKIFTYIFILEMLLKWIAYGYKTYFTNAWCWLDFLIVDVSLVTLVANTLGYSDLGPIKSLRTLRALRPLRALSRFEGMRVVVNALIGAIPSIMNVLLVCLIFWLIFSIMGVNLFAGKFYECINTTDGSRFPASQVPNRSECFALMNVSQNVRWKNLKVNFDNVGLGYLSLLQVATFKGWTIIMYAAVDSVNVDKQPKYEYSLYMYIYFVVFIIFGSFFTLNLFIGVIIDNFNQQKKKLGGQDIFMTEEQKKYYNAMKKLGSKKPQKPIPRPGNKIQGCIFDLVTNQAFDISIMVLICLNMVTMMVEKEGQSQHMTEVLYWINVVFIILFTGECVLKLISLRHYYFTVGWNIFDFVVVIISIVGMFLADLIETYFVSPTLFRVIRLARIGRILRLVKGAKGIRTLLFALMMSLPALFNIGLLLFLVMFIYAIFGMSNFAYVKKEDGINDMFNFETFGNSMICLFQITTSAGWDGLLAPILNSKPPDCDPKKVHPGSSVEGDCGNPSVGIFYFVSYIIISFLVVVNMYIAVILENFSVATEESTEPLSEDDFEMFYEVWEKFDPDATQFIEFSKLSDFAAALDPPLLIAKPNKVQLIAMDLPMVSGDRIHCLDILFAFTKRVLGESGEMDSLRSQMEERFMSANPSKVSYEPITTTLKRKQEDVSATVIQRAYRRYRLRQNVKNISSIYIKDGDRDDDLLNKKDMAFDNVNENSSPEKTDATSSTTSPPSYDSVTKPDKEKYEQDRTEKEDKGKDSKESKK
Sequence (Q07699 19-218 partner): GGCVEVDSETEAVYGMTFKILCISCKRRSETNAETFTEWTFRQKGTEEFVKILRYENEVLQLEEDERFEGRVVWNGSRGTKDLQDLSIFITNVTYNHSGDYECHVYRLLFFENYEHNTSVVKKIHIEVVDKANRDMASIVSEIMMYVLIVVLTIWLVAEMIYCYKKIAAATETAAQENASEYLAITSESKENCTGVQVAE
assay.text: Tritiated compound competitive binding to membranes from cells heterologously expressing hNav1.7 and the β1 subunit (LBA)
applied.conditions: competition with 100 pM [3H]compound, 18 h, room temperature; IC50 by 4 parameter logistic model
observable: Nav1.7 (LBA) (µM)

• O=S(=O)(Nc1ncns1)c1cc2c(cc1F)[C@H](N1CC[C@@](O)(C(F)(F)F)C[C@H]1c1ccc(F)cc1)CCO2 [Example 171] = 2.028
• O=S(=O)(Nc1ncns1)c1ccc2c(c1)OCC[C@@H]2N1CCCC[C@H]1c1ccccc1 (single isomer, unassigned) [Example 37] = 0.0254
• O=S(=O)(Nc1cscn1)c1cc2c(cc1F)[C@H](N1CCCC[C@H]1c1ccccc1)CCO2 (single isomer, unassigned) [Example 98] = 1.79
• O=S(=O)(Nc1nccs1)c1cc2c(cc1F)[C@H](N1CCCC[C@H]1c1ccccc1)CCO2 (single isomer, unassigned) [Example 91] = 0.109
• O=S(=O)(Nc1ncns1)c1ccc2c(c1)OCC[C@@H]2N1CCC(F)(F)C[C@@H]1c1ccc(F)cc1 (single isomer, unassigned) [Example 131] = 0.00851
• Cn1cc([C@@H]2C[C@H](C(F)(F)F)CCN2[C@H]2CCOc3cc(S(=O)(=O)Nc4ncns4)ccc32)cn1 [Example 201] = 0.0037
• O=S(=O)(Nc1ncns1)c1ccc2c(c1)OCC[C@@H]2N1CCCC[C@@H]1CCO (single isomer, unassigned) [Example 152] = 3.31
• C[C@H]1CCN(Cc2cc(F)c(S(=O)(=O)Nc3ncns3)cc2F)[C@@H](c2ccccc2)C1 (single isomer, unassigned) [Example 7] = 4.23

[I] O=S(=O)(Nc1ncns1)c1cc(F)c(CN2CC[C@H](OC(F)(F)F)C[C@@H]2c2ccccc2)cc1F (single isomer, unassigned) [Example 35]
[II] Nc1[nH]ncc1C1CCCCN1Cc1cc(F)c(S(=O)(=O)Nc2ncns2)cc1F (stereo not shown) [Example 118]
[III] O=S(=O)(Nc1ncns1)c1cc2c(cc1F)[C@@H](N1CCCC[C@H]1c1ccc(F)cc1)CCO2 (racemic) [Example 87]
[IV] O=S(=O)(Nc1ncns1)c1ccc2c(c1)OCC[C@H]2N1CCc2ccccc2[C@H]1c1ccccc1 (single isomer, unassigned) [Example 81]
(Q) Please list the entries, largest Nav1.7 (LBA) first. # respond with the labels, arranged in the requested order
(A) II, IV, I, III

[1] O=S(=O)(Nc1ncns1)c1ccc2c(c1)OCC[C@H]2N1CC[C@@H](CF)C[C@H]1c1ccc(F)cc1 [Example 181]
[2] O=S(=O)(Nc1ncns1)c1ccc2c(c1)C(F)(F)CC[C@H]2N1CCCC[C@H]1c1cccnc1 (single isomer, unassigned) [Example 228]
[3] O=S(=O)(Nc1nccs1)c1cc2c(cc1F)[C@H](N1CC[C@@H](C(F)(F)F)C[C@H]1c1ccc(F)cc1)CCO2 (racemic) [Example 93]
(Q) rank_up(items): orders items by reported Nav1.7 (LBA) in ascending numerical order. # respond with the labels, arranged in the requested order
(A) 3, 2, 1

[P] O=S(=O)(Nc1ncns1)c1ccc2c(c1)OCC[C@H]2N1CC[C@@H](C(F)(F)F)C[C@H]1c1ccn[nH]1 (single isomer, unassigned) [Example 144]
[Q] NC(=O)c1cccc([C@@H]2C[C@H](C(F)(F)F)CCN2[C@H]2CCOc3cc(S(=O)(=O)Nc4ncns4)ccc32)c1 [Example 205]
[R] O=S(=O)(Nc1nccs1)c1ccc2c(c1)OCC[C@@H]2N1CCCC[C@H]1c1ccccc1 (single isomer, unassigned) [Example 102]
[S] O=S(=O)(Nc1ncns1)c1cc(Cl)c(CN2CCCC[C@H]2c2cccnc2)cc1F [Example 70]
(Q) Please list the entries, largest Nav1.7 (LBA) first. # respond with the labels, arranged in the requested order
(A) P, S, R, Q

[P] C[C@H](c1cc(F)c(S(=O)(=O)Nc2ncns2)cc1F)N1CCCC[C@H]1c1ccccc1 (single isomer, unassigned) [Example 18]
[Q] O=S(=O)(Nc1nccs1)c1cc2c(cc1F)[C@@H](N1CC[C@H](C(F)(F)F)C[C@@H]1c1ccn[nH]1)CCO2 [Example 212]
(Q) When their Nav1.7 (LBA) values are compared, which is larger, P or Q ? Write down the label attached to your selection.
(A) P

----------
target: hNav1.7 and the β1 subunit (Homo sapiens)
Construct: expressed in transfected cells
assay.text: Tritiated compound competitive binding to membranes from cells heterologously expressing hNav1.7 and the β1 subunit (LBA)
applied.conditions: competition with 100 pM [3H]compound, 18 h, room temperature; IC50 by 4 parameter logistic model
observable: Nav1.7 (LBA) (µM)

Solved cases below.
• O=S(=O)(Nc1ncns1)c1ccc2c(c1)CCC[C@@H]2N1CCCC[C@@H]1c1ccccc1 (single isomer, unassigned) [Example 56] = 1.25
• O=S(=O)(Nc1ncns1)c1cc(F)c(CN2CCC(F)(F)C[C@H]2c2ccccc2)cc1F (single isomer, unassigned) [Example 32] = 0.18

[a] O=S(=O)(Nc1ncns1)c1cc2c(cc1F)[C@H](N1CCCC[C@H]1c1ccccc1)CCO2 (single isomer, unassigned) [Example 85]
[b] N#Cc1cc(S(=O)(=O)Nc2ncns2)ccc1CN1CC[C@@H](C(F)(F)F)C[C@H]1c1ccccc1 [Example 119]
[c] O=S(=O)(Nc1ncns1)c1ccc2c(c1)CCC2N1CCCCC1c1ccccc1 (single isomer, unassigned) [Example 66]
[d] C[C@H](c1ccc(S(=O)(=O)Nc2ncns2)cc1Cl)N1CCCC[C@@H]1c1ccccc1 (single isomer, unassigned) [Example 60]
[e] Cn1nccc1[C@H]1CCCCN1[C@H]1CCOc2cc(S(=O)(=O)Nc3ncns3)ccc21 [Example 42]
(Q) Please list the entries, largest Nav1.7 (LBA) first. # respond with the labels, arranged in the requested order
(A) c, d, a, e, b

----------
target: hNav1.7 and the β1 subunit (Homo sapiens)
Construct: expressed in transfected cells
assay.text: Tritiated compound competitive binding to membranes from cells heterologously expressing hNav1.7 and the β1 subunit (LBA)
applied.conditions: competition with 100 pM [3H]compound, 18 h, room temperature; IC50 by 4 parameter logistic model
observable: Nav1.7 (LBA) (µM)

[P] O=S(=O)(Nc1ncccn1)c1cc2c(cc1F)[C@@H](N1CC[C@@H](C(F)(F)F)C[C@H]1c1ccc(F)cc1)CCO2 (single isomer, unassigned)
[Q] O=S(=O)(Nc1ncns1)c1ccc2c(c1)OCC[C@H]2N1CCC[C@H]1c1ccccc1 (single isomer, unassigned)
[R] CC1(C#N)CCN([C@H]2CCOc3cc(S(=O)(=O)Nc4ncns4)ccc32)CC1
[S] Cn1nccc1[C@H]1CCCCN1Cc1cc(F)c(S(=O)(=O)Nc2ncns2)cc1F (single isomer, unassigned)
(Q) Hey, quick one: sort these by Nav1.7 (LBA), low to high? # respond with the labels, arranged in the requested order
(A) P, S, Q, R
(P: 0.0217 µM, S: 0.22 µM, Q: 0.798 µM, R: 8.6 µM)

[A] O=S(=O)(Nc1nccs1)c1cc2c(cc1F)[C@@H](N1CC[C@H](C(F)(F)F)C[C@@H]1c1ccc(F)cc1)CCO2
[B] N#CC1CCN([C@H]2CCOc3cc(S(=O)(=O)Nc4ncns4)ccc32)CC1
[C] O=S(=O)(Nc1ncns1)c1cc(Cl)c(CN2CCCCC2c2ccccc2)cc1F (centres unmarked)
[D] O=S(=O)(Nc1ncccn1)c1cc2c(cc1F)[C@H](N1CCCC[C@H]1c1ccccc1)CCO2 (single isomer, unassigned)
(Q) Please list the entries, largest Nav1.7 (LBA) first. # respond with the labels, arranged in the requested order
(A) B, D, A, C
(B: 5.36 µM, D: 1.54 µM, A: 0.633 µM, C: 0.334 µM)

[I] CC(C)(O)[C@@H]1CCN([C@@H]2CCOc3cc(S(=O)(=O)Nc4ncns4)ccc32)[C@H](c2ccc(F)cc2)C1 (single isomer, unassigned)
[II] C[C@@H](c1ccc(S(=O)(=O)Nc2ncns2)cc1Cl)N1CCCC[C@@H]1c1ccccc1 (single isomer, unassigned)
(Q) When their Nav1.7 (LBA) values are compared, which is larger, I or II ? Write down the label attached to your selection.
(A) II
(II: 5.04 µM, I: 0.736 µM)

[a] CS(=O)(=O)[C@@H]1CCN([C@H]2CCOc3cc(S(=O)(=O)Nc4ncns4)ccc32)[C@H](c2ccc(F)cc2)C1
[b] N#C[C@@H]1CCN([C@@H]2CCOc3cc(S(=O)(=O)Nc4ncns4)ccc32)[C@H](c2ccc(F)cc2)C1
[c] CS(=O)(=O)[C@H]1CCN([C@@H]2CCOc3cc(S(=O)(=O)Nc4ncns4)ccc32)[C@@H](c2ccc(F)cc2)C1
(Q) rank_up(items): orders items by reported Nav1.7 (LBA) in ascending numerical order. # respond with the labels, arranged in the requested order
(A) a, c, b
